Molecular target: Pan-species-specific antigen Plasmodium Lactate DeHydrogenase (Pan-PLDH) protein
Test: indirect ELISA at four coating concentrations, KD calculated from half-maximal OD
measurement kind: pKd
Kindly note that pKd refers to -log10 of the concentration in mol/L and answer with the value alone.

Solved cases below.
binder: Mutation 1-50 (antibody, mouse IgG2b, kappa, V domains shown) VH: QVQLQQPGAELVRPGASVKLSCKASGTSFTNYWMNWVKQRPGQGLEWIGMIHPSDSETRVNQKFKDKATLTVDKSSSTAYMQLSSLTAEDSAVYYCAKSGEFYTSYFDYWGQGTTLTVSS VL: DIQLTQSPASLSASVGETVTITCRGSGNVHNYLAWYQQKQGKSPQLLVYNAKTIADGVPSRFSGSGSGTQYSLKINSLQPEDFGSYYCQSFWSTYTFGGGTKLEIKR
pKd: 10.06

binder: Mutation 1-37 (antibody, mouse IgG2b, kappa, V domains shown) VH: QVQLQQPGAELVRPGASVKLSCKASGSSFTNYWMNWVKQRPGQGLEWIGMIHPSDSETRLNQKFKDKATLTVDKSSSTAYMQLSSLTAEDSAVYYCAKSGDFYTYYFDYWGQGTTLTVSS VL: DIQLTQSPASLSASVGETVTITCRGTGNLHNYLAWYQQKQGKSPQLLVYNAKTIADGVPSRFSGSGSGTQYSLKINSLQPEDFGSYYCQYFWSTYTFGGGTKLEIKR
pKd: 9.28

Next item in the queue.
Name the reported pKd value associated with the binder Mutation 1-4 (antibody, mouse IgG2b, kappa, V domains shown) VH: QVQLQQPGAELVRPGASVKLSCKASGYSFTNYWMNWVKQRPGQGLEWIGMIHPSDSETRLNQKFKDKATLTVDKSSSTAYMQLSSLTAEDSAVYYCAKSGEFYTYYFDYWGQGTTLTVSS VL: DIQLTQSPASLSASVGETVTITCRGSGNIHNYLAWYQQKQGKSPQLLVYNAKTVADGVPSRFSGSGSGTQYSLKINSLQPEDFGSYYCQTFWSTYTFGGGTKLEIKR 9.22
